Value source: the supplement of paper PMC6555819

- Tested on: PPARg:RXRa (NR concentration 180 nM, RXRa partner concentration 90 nM)
- method: PBM binding z-score (relative to random genomic background probes); higher = stronger binding; sequences stand for … in GC…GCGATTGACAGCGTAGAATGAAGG
Hi all, reminder that labels come from PBM binding z-score, split as Low (below 0.8), Mid (0.8 to below 3), High (3 or more)

- chain: "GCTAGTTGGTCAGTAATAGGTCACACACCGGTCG"
  group: "Mid"
- chain: "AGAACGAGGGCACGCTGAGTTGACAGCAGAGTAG"
  group: "Mid"
- chain: "ACTATTAGTTGAGACGAGGGCAACAGATAGGTTG"
  group: "Mid"
- chain: "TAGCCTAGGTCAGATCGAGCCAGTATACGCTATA"
  group: "Low"
- chain: "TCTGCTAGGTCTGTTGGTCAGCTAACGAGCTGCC"
  group: "Low"
- chain: "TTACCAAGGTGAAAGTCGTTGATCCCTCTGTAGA"
  group: "Low"
- chain: "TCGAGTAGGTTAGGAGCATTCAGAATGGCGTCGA"
  group: "Low"
- chain: "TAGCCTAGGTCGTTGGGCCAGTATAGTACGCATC"
  group: "Low"
- chain: "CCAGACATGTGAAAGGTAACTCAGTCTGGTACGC"
  group: "Mid"
- chain: "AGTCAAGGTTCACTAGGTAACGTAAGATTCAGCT"
  group: "High"
- chain: "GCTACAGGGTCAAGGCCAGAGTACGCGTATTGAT"
  group: "High"
- chain: "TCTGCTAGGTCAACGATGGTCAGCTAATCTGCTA"
  group: "Mid"
- chain: "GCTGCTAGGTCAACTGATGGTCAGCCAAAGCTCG"
  group: "Mid"
- chain: "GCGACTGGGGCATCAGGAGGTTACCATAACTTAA"
  group: "Mid"
- chain: "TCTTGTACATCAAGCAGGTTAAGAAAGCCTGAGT"
  group: "Low"
- chain: "CCGACTGGGGCGGAAAGGTTACCATACCATCCGG"
  group: "Mid"
- chain: "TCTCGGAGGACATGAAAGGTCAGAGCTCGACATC"
  group: "Mid"
- chain: "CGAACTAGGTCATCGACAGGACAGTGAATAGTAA"
  group: "High"
- chain: "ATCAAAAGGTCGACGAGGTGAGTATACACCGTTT"
  group: "High"
- chain: "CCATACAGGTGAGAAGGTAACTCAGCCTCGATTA"
  group: "Mid"
- chain: "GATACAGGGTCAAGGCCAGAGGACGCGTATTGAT"
  group: "High"
- chain: "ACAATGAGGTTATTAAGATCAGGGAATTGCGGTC"
  group: "Mid"
- chain: "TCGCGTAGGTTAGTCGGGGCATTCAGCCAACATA"
  group: "Low"
- chain: "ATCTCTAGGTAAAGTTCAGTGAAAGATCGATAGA"
  group: "High"
- chain: "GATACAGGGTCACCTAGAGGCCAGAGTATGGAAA"
  group: "High"
- chain: "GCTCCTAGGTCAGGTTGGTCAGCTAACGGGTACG"
  group: "Mid"
- chain: "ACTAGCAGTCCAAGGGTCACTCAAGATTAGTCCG"
  group: "High"
- chain: "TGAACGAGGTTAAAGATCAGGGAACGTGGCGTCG"
  group: "High"
- chain: "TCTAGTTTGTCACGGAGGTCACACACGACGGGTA"
  group: "Mid"
- chain: "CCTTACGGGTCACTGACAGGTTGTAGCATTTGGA"
  group: "High"
- chain: "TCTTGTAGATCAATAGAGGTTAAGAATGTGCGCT"
  group: "Low"
- chain: "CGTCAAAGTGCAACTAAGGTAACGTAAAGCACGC"
  group: "Mid"
- chain: "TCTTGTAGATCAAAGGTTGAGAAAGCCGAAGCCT"
  group: "High"
- chain: "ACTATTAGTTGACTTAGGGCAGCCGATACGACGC"
  group: "Low"
- chain: "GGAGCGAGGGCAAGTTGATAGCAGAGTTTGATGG"
  group: "Low"
- chain: "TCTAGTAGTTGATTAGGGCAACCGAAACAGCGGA"
  group: "Low"
- chain: "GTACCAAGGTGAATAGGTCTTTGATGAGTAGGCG"
  group: "Mid"
- chain: "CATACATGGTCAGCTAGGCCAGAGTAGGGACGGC"
  group: "Low"
- chain: "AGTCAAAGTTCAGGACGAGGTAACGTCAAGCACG"
  group: "High"
- chain: "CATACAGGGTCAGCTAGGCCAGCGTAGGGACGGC"
  group: "High"
- chain: "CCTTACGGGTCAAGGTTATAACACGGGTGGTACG"
  group: "High"
- chain: "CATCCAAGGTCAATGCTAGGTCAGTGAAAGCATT"
  group: "High"
- chain: "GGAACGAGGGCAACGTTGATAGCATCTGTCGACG"
  group: "Mid"
- chain: "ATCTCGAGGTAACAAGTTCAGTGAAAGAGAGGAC"
  group: "Low"
- chain: "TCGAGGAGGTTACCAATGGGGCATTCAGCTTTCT"
  group: "Low"
- chain: "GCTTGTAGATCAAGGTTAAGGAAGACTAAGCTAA"
  group: "Mid"
- chain: "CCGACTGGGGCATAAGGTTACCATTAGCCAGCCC"
  group: "Mid"
- chain: "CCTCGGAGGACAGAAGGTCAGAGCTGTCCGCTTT"
  group: "Low"
